# Test protocol: Solubility of the IR-dyes (supersaturated solution, filtration, spectrophotometric determination)
# Format: physicochemical
# Assay context: water/NaOH, pH 9, aqueous buffer, thermodynamic from solid, water/NaOH, pH = 9; read-out: Solubility in H2O/NaOH at pH = 9
Property measured: solubility

[
  {
    "Smiles structure": "CC1(C)C(/C=C/C2=C(Sc3ccccc3C(=O)O)C(=C/C=C3/N(CCCCS(=O)(=O)[O-])c4ccccc4C3(C)C)/CCC2)=[N+](CCCCS(=O)(=O)[O-])c2ccccc21.[K+]",
    "Property measured": "solubility",
    "Result": "> 50 mg/mL"
  }
]

---

Solubility in H2O/NaOH at pH = 9 overview
# Test protocol: Solubility of the IR-dyes (supersaturated solution, filtration, spectrophotometric determination)
# Format: physicochemical
# Assay context: water/NaOH, pH = 9
# Description: The solubility of the IR-dyes IR-1 to −5 and of a comparison dye Cl (commercially available from FEW Chemicals GmbH) was determined as follows: the extinction coefficient of the dyes was measured in methanol with a HP8453 UV/VIS/NIR spectrophotometer; […]

[
  {
    "Compound": "CC1(C)C(/C=C/C2=C(Sc3ccccc3C(=O)O)C(=C/C=C3/N(CCCCS(=O)(=O)[O-])c4ccccc4C3(C)C)/CCC2)=[N+](CCCCS(=O)(=O)[O-])c2ccccc21.[K+] [IR-dye 2]",
    "Solubility in H2O/NaOH at pH = 9": ">50 g/l"
  },
  {
    "Compound": "CC1(C)C(/C=C/C2=C(Sc3ccccc3C(=O)O)C(=C/C=C3/N(CCCCS(=O)(=O)[O-])c4ccccc4C3(C)C)/CCC2)=[N+](CCCCS(=O)(=O)[O-])c2ccccc21.[K+] [IR-dye 1]",
    "Solubility in H2O/NaOH at pH = 9": "40.1 g/l"
  },
  {
    "Compound": "CC1(C)C(/C=C/C2=C(Sc3ccccc3C(=O)O)C(=C/C=C3/N(CCCCS(=O)(=O)[O-])c4ccccc4C3(C)C)/CCC2)=[N+](CCCCS(=O)(=O)[O-])c2ccccc21.[K+] [IR-dye 3]",
    "Solubility in H2O/NaOH at pH = 9": ">50 g/l"
  },
  {
    "Compound": "CC1(C)C(/C=C/C2=C(Sc3ccccc3C(=O)O)C(=C/C=C3/N(CCCCS(=O)(=O)[O-])c4ccccc4C3(C)C)/CCC2)=[N+](CCCCS(=O)(=O)[O-])c2ccccc21.[K+] [IR-dye 4]",
    "Solubility in H2O/NaOH at pH = 9": ">50 g/l"
  }
]

---

Reported Solubility in MOP values for the following molecules.
# Test protocol: Solubility of the IR-dyes (supersaturated solution, filtration, spectrophotometric determination)
# Format: physicochemical
# Assay context: 2-methoxyl-propanol (MOP)
Property measured: Solubility in MOP (µg/mL)

[
  {
    "Molecule": "CC1(C)C(/C=C/C2=C(Sc3ccccc3C(=O)O)C(=C/C=C3/N(CCCCS(=O)(=O)[O-])c4ccccc4C3(C)C)/CCC2)=[N+](CCCCS(=O)(=O)[O-])c2ccccc21.[K+] [IR-dye 2]",
    "Property measured": "Solubility in MOP",
    "Relation symbol": "=",
    "Quantitative readout": 420
  },
  {
    "Molecule": "CC1(C)C(/C=C/C2=C(Sc3ccccc3C(=O)O)C(=C/C=C3/N(CCCCS(=O)(=O)[O-])c4ccccc4C3(C)C)/CCC2)=[N+](CCCCS(=O)(=O)[O-])c2ccccc21.[K+] [IR-dye 4]",
    "Property measured": "Solubility in MOP",
    "Relation symbol": "=",
    "Quantitative readout": 5700
  },
  {
    "Molecule": "CC1(C)C(/C=C/C2=C(Sc3ccccc3C(=O)O)C(=C/C=C3/N(CCCCS(=O)(=O)[O-])c4ccccc4C3(C)C)/CCC2)=[N+](CCCCS(=O)(=O)[O-])c2ccccc21.[K+] [IR-dye 1]",
    "Property measured": "Solubility in MOP",
    "Relation symbol": "=",
    "Quantitative readout": 3800
  },
  {
    "Molecule": "CC1(C)C(/C=C/C2=C(Sc3ccccc3C(=O)O)C(=C/C=C3/N(CCCCS(=O)(=O)[O-])c4ccccc4C3(C)C)/CCC2)=[N+](CCCCS(=O)(=O)[O-])c2ccccc21.[K+] [IR-dye 3]",
    "Property measured": "Solubility in MOP",
    "Relation symbol": ">",
    "Quantitative readout": 100000
  }
]
